target: EcwtSC (Escherichia coli); test: Isothermal Titration Calorimetry (ITC/kinITC), wild-type sliding clamp; format: binding, E. coli; conditions: buffer R1 (X 1), 310.15 K (37 °C)
Sequence (P0A988 whole entry): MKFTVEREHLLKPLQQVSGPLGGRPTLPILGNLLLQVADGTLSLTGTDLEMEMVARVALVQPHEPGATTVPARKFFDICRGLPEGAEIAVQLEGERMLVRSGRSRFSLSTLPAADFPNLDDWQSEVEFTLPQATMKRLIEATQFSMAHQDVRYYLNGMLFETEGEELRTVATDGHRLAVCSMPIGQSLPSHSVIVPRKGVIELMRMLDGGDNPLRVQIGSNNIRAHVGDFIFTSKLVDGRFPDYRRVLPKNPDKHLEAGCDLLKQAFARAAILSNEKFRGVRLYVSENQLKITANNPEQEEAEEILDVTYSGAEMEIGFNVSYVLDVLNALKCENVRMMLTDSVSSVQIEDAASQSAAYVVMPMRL
Square brackets hold non-standard residues; d marks the D form. Peptide text beside a SMILES is read from it. * marks the point of attachment. Cha = N[C@@H](CC1CCCCC1)C(=O)O; Crotonyl(E) = C/C=C/C(=O)*; Dap = NC[C@H](N)C(=O)O; Acryloyl = C=CC(=O)*; ClAc = O=C(CCl)*; X1 = CC#CC(=O)*
Readout: -TΔS

If you can, please state the reported -TΔS value of C/C=C/C(=O)NC[C@H](NC(=O)[C@H](CC1CCCCC1)NC(=O)[C@H](CCC(N)=O)NC(C)=O)C(=O)N[C@@H](CC(C)C)C(=O)N[C@@H](Cc1ccccc1)C(=O)O [Peptide 3, Ac-Gln-Cha-Dap(but-2-enamide)-Leu-Phe-OH] (Ac-Q[Cha][Dap](Crotonyl(E))LF-OH) .
5.8 (± 1) kcal/mol

If you can, please state the reported -TΔS value of C=CC(=O)NC[C@H](NC(=O)[C@H](CC1CCCCC1)NC(=O)[C@H](CCC(N)=O)NC(C)=O)C(=O)N[C@@H](CC(C)C)C(=O)N[C@@H](Cc1ccccc1)C(=O)O [Peptide 1, Ac-Gln-Cha-Dap(acrylamide)-Leu-Phe-OH] (Ac-Q[Cha][Dap](Acryloyl)LF-OH) .
4.9 (± 1.1) kcal/mol

If you can, please state the reported -TΔS value of CC(=O)N[C@@H](CCC(N)=O)C(=O)N[C@@H](CC1CCCCC1)C(=O)N[C@@H](CNC(=O)CCl)C(=O)N[C@@H](CC(C)C)C(=O)N[C@@H](Cc1ccccc1)C(=O)O [Peptide 2] (Ac-Q[Cha][Dap](ClAc)LF-OH) .
2.3 (± 0.9) kcal/mol

If you can, please state the reported -TΔS value of CC#CC(=O)NC[C@H](NC(=O)[C@H](CC1CCCCC1)NC(=O)[C@H](CCC(N)=O)NC(C)=O)C(=O)N[C@@H](CC(C)C)C(=O)N[C@@H](Cc1ccccc1)C(=O)O [Peptide 5, Ac-Gln-Cha-Dap(but-2-ynamide)-Leu-Phe-OH] (Ac-Q[Cha][Dap](X1)LF-OH) .
6.9 (± 0.4) kcal/mol

Cited source for all entries: patent EP4445957A1
